Origin of values: patent US11414450B1

Please go through the items and note down their Geometric Mean MIC values, E. coli isogenic strains, nmpA.
Tested on: E. coli isogenic strain nmpA
PROTOCOL DESCRIPTION: MIC broth microdilution, E. coli isogenic strain nmpA
Assay type: cell-based
CONDITIONS: Table 2

Would you please look over these solved cases?
1) NCC1OC(OC2C(CO)OC(OC3C(O)C(N)CC(N)C3OC3OC(C4(N)CC4)CCC3N)C2O)C(N)C(O)C1O (stereo not drawn) [drawing 859] ... 32 µg/mL
2) NCC1OC(OC2C(N)CC(N)C(O)C2OC2OC(CO)C(OC3OC(CN)C(O)C(O)C3N)C2O)C(N)CC1O (stereo not drawn) [drawing 864, reference compound] ... >64 µg/mL
3) NCC1OC(OC2C(CO)OC(OC3C(O)C(N)CC(N)C3OC3OC(CN)C(O)C(F)(F)C3N)C2O)C(N)C(O)C1O (stereo not drawn) [drawing 870] ... >64 µg/mL
4) NCC1OC(OC2C(CO)OC(OC3C(O)C(N)CC(N)C3OC3OC(CN)C(O)C(F)C3N)C2O)C(N)C(O)C1O (stereo not drawn) [drawing 868] ... >64 µg/mL
5) NC[C@@H]1O[C@H](O[C@H]2[C@@H](O)[C@H](O[C@@H]3[C@@H](O)[C@H](N)C[C@H](N)[C@H]3O[C@H]3O[C@H](CN)[C@@H](O)[C@H](O)[C@H]3N)O[C@@H]2CO)[C@H](N)[C@@H](O)[C@@H]1O [NEO, neomycin B, reference compound] ... 80 µg/mL

Next item in the queue.
Input: For the molecule NCC1CCC(N)C(OC2C(N)CC(N)C(O)C2OC2OC(CO)C(OC3OC(CN)C(O)C(O)C3N)C2O)O1 (stereo not drawn) [drawing 856, reference compound] , report Geometric Mean MIC values, E. coli isogenic strains, nmpA.
Output: >64 µg/mL

----------
Tested on: E. coli efflux parent
PROTOCOL DESCRIPTION: MIC broth microdilution, E. coli efflux parent strain
Assay type: cell-based
CONDITIONS: Table 2; geometric mean
Please respond with reported Geometric Mean MIC values, E. coli efflux parent for every item in the list.
Numbers only, in mg/L.

A selection of reference data follows.
1. NCC1OC(OC2C(N)CC(N)C(O)C2OC2OC(CO)C(OC3OC(CN)C(O)C(O)C3N)C2O)C(N)CC1O (stereo not drawn) [drawing 864, reference compound] ... 0.63
2. NCC1CCC(N)C(OC2C(N)CC(N)C(O)C2OC2OC(CO)C(OC3OC(CN)C(O)C(O)C3N)C2O)O1 (stereo not drawn) [drawing 856, reference compound] ... 0.87

Provide Geometric Mean MIC values, E. coli efflux parent values for the following items, in order.
1. NCC1OC(OC2C(CO)OC(OC3C(O)C(N)CC(N)C3OC3OC(CN)C(O)C(F)(F)C3N)C2O)C(N)C(O)C1O (stereo not drawn) [drawing 870]
2. NCC1OC(OC2C(CO)OC(OC3C(O)C(N)CC(N)C3OC3OC(CN)C(O)C(F)C3N)C2O)C(N)C(O)C1O (stereo not drawn) [drawing 866]
3. CC(N)C1CCC(N)C(OC2C(N)CC(N)C(O)C2OC2OC(CO)C(OC3OC(CN)C(O)C(O)C3N)C2O)O1 (stereo not drawn) [drawing 857]
4. CCC(N)C1CCC(N)C(OC2C(N)CC(N)C(O)C2OC2OC(CO)C(OC3OC(CN)C(O)C(O)C3N)C2O)O1 (stereo not drawn) [drawing 861]

Output:
1. 4
2. 1.4
3. 1
4. 2
